Each item that follows carries a reported Activity.
Molecular target: Muscarinic acetylcholine receptor M2 (Homo sapiens) (UniProt P08172)
Sequence (whole entry): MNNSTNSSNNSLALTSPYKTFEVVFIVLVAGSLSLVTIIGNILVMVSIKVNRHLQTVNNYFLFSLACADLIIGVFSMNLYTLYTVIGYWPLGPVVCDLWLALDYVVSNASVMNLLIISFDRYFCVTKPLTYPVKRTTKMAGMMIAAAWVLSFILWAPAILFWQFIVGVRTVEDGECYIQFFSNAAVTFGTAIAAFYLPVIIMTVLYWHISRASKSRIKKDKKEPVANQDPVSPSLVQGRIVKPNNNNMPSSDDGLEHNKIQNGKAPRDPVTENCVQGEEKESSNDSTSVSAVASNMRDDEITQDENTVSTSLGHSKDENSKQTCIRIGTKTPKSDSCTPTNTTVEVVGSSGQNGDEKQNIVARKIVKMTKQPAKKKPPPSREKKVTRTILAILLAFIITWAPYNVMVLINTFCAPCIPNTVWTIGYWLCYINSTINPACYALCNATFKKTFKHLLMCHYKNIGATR
Assay: Agonist potency at muscarinic M2 receptor in guinea pig atrium
Assay type: functional, tissue-based
Conditions: Cavia porcellus; Cardiac atrium; target entry is the homologue from another species
measured-property: Activity

[
  {
    "compound": "C[C@H]1O[C@@H]([C@@H]2CCCN2C)C[S@+]1[O-]",
    "tested-on": "Muscarinic acetylcholine receptor M2 (Homo sapiens) (UniProt P08172)",
    "measured-property": "Activity",
    "numeric-result": 0
  },
  {
    "compound": "C[C@@H]1O[C@H]([C@@H]2CCC[N+]2(C)C)C[S@@+]1[O-]",
    "tested-on": "Muscarinic acetylcholine receptor M2 (Homo sapiens) (UniProt P08172)",
    "measured-property": "Activity",
    "numeric-result": 0.56
  },
  {
    "compound": "C[C@@H]1O[C@H]([C@@H]2CCCN2C)C[S@+]1[O-]",
    "tested-on": "Muscarinic acetylcholine receptor M2 (Homo sapiens) (UniProt P08172)",
    "measured-property": "Activity",
    "numeric-result": 0
  },
  {
    "compound": "C[C@H]1O[C@@H]([C@@H]2CCC[N+]2(C)C)C[S@@+]1[O-] (stereo in doubt; (-)-8)",
    "tested-on": "Muscarinic acetylcholine receptor M2 (Homo sapiens) (UniProt P08172)",
    "measured-property": "Activity",
    "numeric-result": 0
  },
  {
    "compound": "C[C@@H]1O[C@H]([C@@H]2CCC[N+]2(C)C)C[S@+]1[O-]",
    "tested-on": "Muscarinic acetylcholine receptor M2 (Homo sapiens) (UniProt P08172)",
    "measured-property": "Activity",
    "numeric-result": 0.41
  },
  {
    "compound": "C#CCOC(=O)C1=CCCN(C)C1",
    "tested-on": "Muscarinic acetylcholine receptor M2 (Homo sapiens) (UniProt P08172)",
    "measured-property": "Activity",
    "numeric-result": 1
  },
  {
    "compound": "C[C@@H]1O[C@H]([C@@H]2CCCN2C)C[S@@+]1[O-]",
    "tested-on": "Muscarinic acetylcholine receptor M2 (Homo sapiens) (UniProt P08172)",
    "measured-property": "Activity",
    "numeric-result": 0
  },
  {
    "compound": "C[C@H]1O[C@@H]([C@@H]2CCC[N+]2(C)C)C[S@@+]1[O-] (stereo in doubt; (+)-7)",
    "tested-on": "Muscarinic acetylcholine receptor M2 (Homo sapiens) (UniProt P08172)",
    "measured-property": "Activity",
    "numeric-result": 0
  },
  {
    "compound": "C[C@@H]1O[C@H]([C@H]2CCC[N+]2(C)C)C[S@@+]1[O-]",
    "tested-on": "Muscarinic acetylcholine receptor M2 (Homo sapiens) (UniProt P08172)",
    "measured-property": "Activity",
    "numeric-result": 0.58
  },
  {
    "compound": "C[C@H]1O[C@@H]([C@@H]2CCC[N+]2(C)C)C[S@@+]1[O-] (stereo in doubt; (-)-6)",
    "tested-on": "Muscarinic acetylcholine receptor M2 (Homo sapiens) (UniProt P08172)",
    "measured-property": "Activity",
    "numeric-result": 0
  },
  {
    "compound": "C[C@H]1O[C@@H]([C@@H]2CCC[N+]2(C)C)C[S@+]1[O-]",
    "tested-on": "Muscarinic acetylcholine receptor M2 (Homo sapiens) (UniProt P08172)",
    "measured-property": "Activity",
    "numeric-result": 0
  }
]
